Data origin, for the record: ChEMBL document CHEMBL1156851

Experiment: Cytotoxicity against HEL cells assessed as microscopically detectable alteration of cell morphology
Format: cell-based
Conditions: human
MEASURED PARAMETER: MCC

Take a look at these entries with their results.
MOLECULE: CC(=O)OC[C@H]1O[C@@H](n2cc(C3C(C#N)=C(N)Oc4cc(C)oc(=O)c43)c(=O)[nH]c2=O)C[C@@H]1OC(C)=O (stereo not given in full)
MCC: > 100 µM

MOLECULE: CCn1c(C)cc2c(c1=O)C(c1cn([C@H]3C[C@H](O)[C@@H](CO)O3)c(=O)[nH]c1=O)C(C#N)=C(N)O2 (stereo not given in full)
MCC: > 100 µM

MOLECULE: Nc1nc2c(ncn2COCCO)c(=O)[nH]1
MCC: > 1780 µM

MOLECULE: CC(=O)OC[C@H]1O[C@@H](n2cc(C(c3c(O)cc(C)oc3=O)c3c(O)cc(C)oc3=O)c(=O)[nH]c2=O)C[C@@H]1OC(C)=O
MCC: > 100 µM

Reported MCC for Cc1cc(O)c(C(c2cn([C@H]3C[C@H](O)[C@@H](CO)O3)c(=O)[nH]c2=O)c2c(O)cc(C)n(C)c2=O)c(=O)n1C : what is it?
> 100 µM

====

I'd be grateful if you could share measured CC50 for these entries.
Test: Cytotoxicity against HEL cells assessed as reduction of cell growth
Format: cell-based
Conditions: human

COMPOUND: Cc1cc2c(c(=O)n1C)C(c1cn([C@H]3C[C@H](O)[C@@H](CO)O3)c(=O)[nH]c1=O)C(C#N)=C(N)O2 (some centres undefined)
MEASURED PARAMETER: CC50
ENDPOINT RESULT: > 100 µM

The following compounds each have a reported value; give each one's CC50.
1. CC(=O)OC[C@H]1O[C@@H](n2cc(C3C(C#N)=C(N)Oc4cc(C)[nH]c(=O)c43)c(=O)[nH]c2=O)C[C@@H]1OC(C)=O (some centres undefined)
2. Cc1cc(O)c(C(c2cn([C@H]3C[C@H](O)[C@@H](CO)O3)c(=O)[nH]c2=O)c2c(O)cc(C)[nH]c2=O)c(=O)[nH]1
3. CC(=O)OC[C@H]1O[C@@H](n2cc(C(c3c(O)cc(C)[nH]c3=O)c3c(O)cc(C)[nH]c3=O)c(=O)[nH]c2=O)C[C@@H]1OC(C)=O

["> 100 µM", "2.1 µM", "36.9 µM"]

====

Assay: Cytotoxicity against HEL cells assessed as reduction of cell growth
Format: cell-based
Details: human
MEASURED PARAMETER: CC50 (µM)
Answers are plain numbers, in µM.

For orientation, consider the following solved cases.
MOLECULE: Cc1cc2c(c(=O)o1)C(c1cn([C@H]3C[C@H](O)[C@@H](CO)O3)c(=O)[nH]c1=O)C(C#N)=C(N)O2 (some centres undefined)
CC50, µM: 3.3
--
MOLECULE: CC(=O)OC[C@H]1O[C@@H](n2cc(C(c3c(O)cc(C)n(C)c3=O)c3c(O)cc(C)n(C)c3=O)c(=O)[nH]c2=O)C[C@@H]1OC(C)=O
CC50, µM: 20

Please look at the following molecule next.
Could you tell me which CC50 is on file for Cc1cc(O)c(C(c2cn([C@H]3C[C@H](O)[C@@H](CO)O3)c(=O)[nH]c2=O)c2c(O)cc(C)n(C)c2=O)c(=O)n1C ?
7.7

====

So I've got a bunch of molecules here, and I need their CC50 values.
Test: Cytotoxicity against HEL cells assessed as reduction of cell growth
Format: cell-based
Conditions: human
Numbers only, in µM.

Worked examples, 4 molecules total:
MOLECULE: Cc1cc(O)c(C(c2cn([C@H]3C[C@H](O)[C@@H](CO)O3)c(=O)[nH]c2=O)c2c(O)cc(C)oc2=O)c(=O)o1
UNIT SPEC: µM
CC50: 1.8
//
MOLECULE: CC(=O)OC[C@H]1O[C@@H](n2cc(C(c3c(O)cc(C)oc3=O)c3c(O)cc(C)oc3=O)c(=O)[nH]c2=O)C[C@@H]1OC(C)=O
UNIT SPEC: µM
CC50: 3.8
//
MOLECULE: CC(=O)OC[C@H]1O[C@@H](n2cc(C3C(C#N)=C(N)Oc4cc(C)oc(=O)c43)c(=O)[nH]c2=O)C[C@@H]1OC(C)=O (stereo partly drawn)
UNIT SPEC: µM
CC50: 8.9
//
MOLECULE: Nc1nc2c(ncn2COCCO)c(=O)[nH]1 [ACYCLOVIR]
UNIT SPEC: µM
CC50: 1780

Shift focus to the following entry.
Need CC50, item Nc1ccn(C[C@@H](CO)OCP(=O)(O)O)c(=O)n1 [CIDOFOVIR]
175

====

For each record, write down the corresponding IC50.
Test system: Leishmania donovani
Assay: Antileishmanial activity against Leishmania donovani promastigotes
Format: functional, organism-based

Provide reported IC50 for each item, in the same order as listed.
1. CC(=O)OC[C@H]1O[C@@H](n2cc(C(c3c(O)cc(C)oc3=O)c3c(O)cc(C)oc3=O)c(=O)[nH]c2=O)C[C@@H]1OC(C)=O
2. N=C(N)c1ccc(OCCCCCOc2ccc(C(=N)N)cc2)cc1 [PENTAMIDINE]
3. Cc1cc(O)c(C(c2cn([C@H]3C[C@H](O)[C@@H](CO)O3)c(=O)[nH]c2=O)c2c(O)cc(C)n(C)c2=O)c(=O)n1C
4. Cc1cc2c(c(=O)o1)C(c1cn([C@H]3C[C@H](O)[C@@H](CO)O3)c(=O)[nH]c1=O)C(C#N)=C(N)O2 (stereo not given in full)
5. CCn1c(C)cc2c(c1=O)C(c1cn([C@H]3C[C@H](O)[C@@H](CO)O3)c(=O)[nH]c1=O)C(C#N)=C(N)O2 (stereo not given in full)

1: > 200 µM; 2: 6.5 µM; 3: > 200 µM; 4: > 200 µM; 5: > 200 µM

Dear reader, for each entry below, please note its IC50.
1. CC(=O)OC[C@H]1O[C@@H](n2cc(C(c3c(O)cc(C)[nH]c3=O)c3c(O)cc(C)[nH]c3=O)c(=O)[nH]c2=O)C[C@@H]1OC(C)=O
2. CC(=O)OC[C@H]1O[C@@H](n2cc(C3C(C#N)=C(N)Oc4cc(C)n(C)c(=O)c43)c(=O)[nH]c2=O)C[C@@H]1OC(C)=O (stereo not given in full)
3. CC(=O)OC[C@H]1O[C@@H](n2cc(C(c3c(O)cc(C)n(C)c3=O)c3c(O)cc(C)n(C)c3=O)c(=O)[nH]c2=O)C[C@@H]1OC(C)=O
4. Cc1cc(O)c(C(c2cn([C@H]3C[C@H](O)[C@@H](CO)O3)c(=O)[nH]c2=O)c2c(O)cc(C)[nH]c2=O)c(=O)[nH]1
5. Cc1cc2c(c(=O)n1C)C(c1cn([C@H]3C[C@H](O)[C@@H](CO)O3)c(=O)[nH]c1=O)C(C#N)=C(N)O2 (stereo not given in full)
6. CCn1c(C)cc2c(c1=O)C(c1cn([C@H]3C[C@H](OC(C)=O)[C@@H](COC(C)=O)O3)c(=O)[nH]c1=O)C(C#N)=C(N)O2 (stereo not given in full)
7. Cc1cc(O)c(C(c2cn([C@H]3C[C@H](O)[C@@H](CO)O3)c(=O)[nH]c2=O)c2c(O)cc(C)oc2=O)c(=O)o1

> 200 µM
> 200 µM
> 200 µM
43.5 µM
> 200 µM
> 200 µM
> 200 µM

Each molecule below has a recorded value; state its IC50.
1. CC(=O)OC[C@H]1O[C@@H](n2cc(C3C(C#N)=C(N)Oc4cc(C)[nH]c(=O)c43)c(=O)[nH]c2=O)C[C@@H]1OC(C)=O (stereo not given in full)
2. Cc1cc2c(c(=O)[nH]1)C(c1cn([C@H]3C[C@H](O)[C@@H](CO)O3)c(=O)[nH]c1=O)C(C#N)=C(N)O2 (stereo not given in full)
3. CC(=O)OC[C@H]1O[C@@H](n2cc(C3C(C#N)=C(N)Oc4cc(C)oc(=O)c43)c(=O)[nH]c2=O)C[C@@H]1OC(C)=O (stereo not given in full)

1. 140 µM
2. 10.6 µM
3. > 200 µM

====

Please respond with reported MCC for every item in the list.
Assay: Cytotoxicity against HEL cells assessed as microscopically detectable alteration of cell morphology
Format: cell-based
Conditions: human

Below is a list of compounds. For each, state its recorded MCC.
1. CC(=O)OC[C@H]1O[C@@H](n2cc(C(c3c(O)cc(C)n(C)c3=O)c3c(O)cc(C)n(C)c3=O)c(=O)[nH]c2=O)C[C@@H]1OC(C)=O
2. Cc1cc(O)c(C(c2cn([C@H]3C[C@H](O)[C@@H](CO)O3)c(=O)[nH]c2=O)c2c(O)cc(C)[nH]c2=O)c(=O)[nH]1
3. Cc1cc2c(c(=O)o1)C(c1cn([C@H]3C[C@H](O)[C@@H](CO)O3)c(=O)[nH]c1=O)C(C#N)=C(N)O2 (some centres undefined)
4. Nc1ccn(C[C@@H](CO)OCP(=O)(O)O)c(=O)n1 [CIDOFOVIR]

1. > 100 µM
2. > 100 µM
3. > 100 µM
4. > 1270 µM
